# procedure-text: Drug uptake in Sprague-Dawley rat lung at 1 mg/ml administered in trachea after 180 mins by LC-MS/MS analysis
# Format: ADME
# measurement-parameters: Sprague-Dawley, lung, inhaled or intranasal, 1 mg/ml, read-out: Drug uptake
endpoint-name: concentration at 3 h
// unit must come after the numeric part

// query Entry under review: COC(=O)[C@]12CCC(C)(C)C[C@H]1[C@H]1C(=O)C=C3[C@@]4(C)C=C(C#N)C(=O)C(C)(C)[C@@H]4CC[C@@]3(C)[C@]1(C)CC2 [BARDOXOLONE METHYL] . Reported concentration at 3 h?
// result 44.8 ng/mL

Cited source for all entries: ChEMBL document CHEMBL4052829
